# system.name: T1, Recombinant human Dkk-1 (R&D Systems cat no. 1096-DK/CF), 10xHis tag at the C terminal (human, UniProt O94907 32-266)
# T1 construct: the actual N-terminus of the purified protein is marked in bold italic after residue 30, but the mark is an image lost in the text; also called rhuDkk-1; hDkk-1
# T1 sequence: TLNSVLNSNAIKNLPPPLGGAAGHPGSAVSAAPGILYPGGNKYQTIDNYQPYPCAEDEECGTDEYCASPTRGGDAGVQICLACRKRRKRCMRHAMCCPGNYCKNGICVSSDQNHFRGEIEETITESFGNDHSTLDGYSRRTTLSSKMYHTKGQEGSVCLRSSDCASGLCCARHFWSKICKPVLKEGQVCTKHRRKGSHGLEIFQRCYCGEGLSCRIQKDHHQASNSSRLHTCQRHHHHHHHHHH
# test.summary: SPR screening 37C (BIAcore/ProteOn), Fab lysate over biotinylated human Dkk-1
Entries and their measured koff follow.
The figure you give is taken to be in s⁻¹; do not add the unit.

SL3.1G2 (Fab, V domains shown, tested as Fab (E. coli lysate, screening mode); human kappa CL and IgG2 CH1 not included here) VH: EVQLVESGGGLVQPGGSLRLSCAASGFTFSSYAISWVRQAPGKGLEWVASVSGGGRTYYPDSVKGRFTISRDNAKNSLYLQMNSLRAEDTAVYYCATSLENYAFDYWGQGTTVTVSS VL: EIVLTQSPATLSLSPGERATLSCRASESVDDFGISFMNWYQQKPGQAPRLLIYAASKQGSGIPARFSGSGSGTDFTLTISSLEPEDFAVYYCQQSIEVPPTFGGGTKVEIK: 0.00872
L3.4E7 (Fab, V domains shown, tested as Fab (E. coli lysate, screening mode); human kappa CL and IgG2 CH1 not included here; printed changes identical to L3.4H2) VH: EVQLVESGGGLVQPGGSLRLSCAASGFTFSSYAISWVRQAPGKGLEWVASVSGWGDTYYPDSVKGRFTISRDNAKNSLYLQMNSLRAEDTAVYYCATSLQNYAFDYWGQGTTVTVSS VL: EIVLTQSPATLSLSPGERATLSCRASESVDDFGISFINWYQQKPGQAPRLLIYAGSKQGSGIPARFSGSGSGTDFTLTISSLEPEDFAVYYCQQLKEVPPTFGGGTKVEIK: 0.000276

Turning now to a further record.
I would be grateful if you could share the reported koff for SL3.4F1 (Fab, V domains shown, tested as Fab (E. coli lysate, screening mode); human kappa CL and IgG2 CH1 not included here) VH: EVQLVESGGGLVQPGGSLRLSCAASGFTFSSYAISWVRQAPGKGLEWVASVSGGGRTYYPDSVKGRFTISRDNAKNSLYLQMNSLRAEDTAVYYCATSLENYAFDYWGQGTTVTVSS VL: EIVLTQSPATLSLSPGERATLSCRASESVDDFGISFMNWYQQKPGQAPRLLIYAASKQGSGIPARFSGSGSGTDFTLTISSLEPEDFAVYYCQQSKEVPSTFGGGTKVEIK .
0.0169
